Listed below: IC50 values for each entry.
# system tested: UniProt:P14902
# Sequence (P14902 whole entry): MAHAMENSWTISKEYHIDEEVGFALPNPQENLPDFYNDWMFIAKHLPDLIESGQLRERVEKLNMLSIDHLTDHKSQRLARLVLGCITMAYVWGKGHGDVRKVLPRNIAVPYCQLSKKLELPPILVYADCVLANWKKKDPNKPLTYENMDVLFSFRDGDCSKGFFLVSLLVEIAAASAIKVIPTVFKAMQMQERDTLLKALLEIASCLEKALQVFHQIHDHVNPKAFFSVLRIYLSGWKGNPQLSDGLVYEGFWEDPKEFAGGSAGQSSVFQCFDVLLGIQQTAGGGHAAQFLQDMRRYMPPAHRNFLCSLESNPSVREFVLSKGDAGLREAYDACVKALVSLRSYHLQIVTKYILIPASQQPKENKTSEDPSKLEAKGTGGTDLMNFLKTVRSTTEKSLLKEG
# test description: SKOV3 kynurenine cell-based assay (IDO induced by IFN-γ)
# Parameters: IDO expression was induced in the SKOV3 cells by the addition of 500 ng/ml IFN-γ; endogenous in cells; host or cells: SKOV3 (human ovarian adenocarcinoma), induced with IFN-γ
# condition set: SKOV3 human ovarian adenocarcinoma cells, 500 ng/ml IFN-γ, 48 hours, 500 μM L-tryptophan; read-out: SKOV3 Kynurenine cell based assay pIC50 (converted)

Guide cases for IC50, answers given:
{"columns": ["compound", "system tested", "attribute measured", "endpoint value"],
 "data": [
  ["Cn1ncc2c1CCN(c1cc(Cl)cc3[nH]ncc13)C2", "UniProt:P14902", "IC50", "3.24 to 31.6 µM"],
  ["Clc1cc(N2CCc3ccccc3C2)c2cn[nH]c2c1", "UniProt:P14902", "IC50", "32.4 to 100 µM"],
  ["CC(=O)N1CC2CC1CN2c1cc(Cl)cc2[nH]ncc12 (stereo not drawn)", "UniProt:P14902", "IC50", "32.4 to 100 µM"]
]}

Entry CN1C(=O)[C@@H]2CC[C@H]1CN(c1cc(Cl)cc3[nH]ncc13)C2 : reported IC50 = ?
> 100 µM

Please report the recorded IC50 for O=C(N1CCN(c2cc(Cl)cc3[nH]ncc23)CC1)C1(O)CC1 .
3.24 to 31.6 µM

I'd like to know its IC50. The compound in question is CS(=O)(=O)N1CCN(c2cc(C(F)(F)F)cc3[nH]ncc23)CC1
3.24 to 31.6 µM

Data origin: patent US10590086B2
